Assign Systolic Blood Pressure, Value Before Administration to each entry below.
tested on: spontaneously hypertensive rates (SHR rats); assay: Measurement of change in blood pressure (systolic, indirect, conscious rats) after one oral dose; format: in vivo, rat; settings: second table (Examples 25-43); before administration
Peptide text beside a SMILES is read from it. * marks the point of attachment. Bz = O=C(c1ccccc1)*
Please reply with the number alone, leaving off any unit.

Query :: Query the reported Systolic Blood Pressure, Value Before Administration for spontaneously hypertensive rates (SHR rats); item: O=C(N[C@@H](Cc1ccccc1)C(=O)N1CCC[C@H]1C(=O)N1CCC[C@H]1C(=O)O)c1ccccc1.[Na] [Example 26] (Bz-Phe-Pro-Pro-OH)
Result :: 228

Query :: What do you have for CCS(=O)(=O)N[C@@H](CCSC)C(=O)N1CCC[C@H]1C(=O)N1CCC[C@H]1C(=O)O [Example 43] ?
Result :: 229

Query :: Try this compound next: CCS(=O)(=O)N[C@@H](CCC(=O)O)C(=O)N1CCC[C@H]1C(=O)N1CCC[C@H]1C(=O)O [Example 40]
Result :: 220

Query :: Entry O=C(NCC(=O)N1CCC[C@H]1C(=O)N1CCC[C@H]1C(=O)O)c1ccccc1 [Example 27, N--benzoyl-glycyl-L-prolyl-L-proline] (Bz-Gly-Pro-Pro-OH) please
Result :: 232

Query :: Query CCS(=O)(=O)N[C@@H](Cc1ccccc1)C(=O)N1CCC[C@H]1C(=O)N1CCC[C@H]1C(=O)O [Example 38] next
Result :: 235

Query :: And then O=C(O)CC[C@H](NC(=O)c1ccccc1)C(=O)N1CCC[C@H]1C(=O)N1CCC[C@H]1C(=O)O [Example 28, N--benzoyl-L-glutamyl-L-prolyl-L-proline] (Bz-Glu-Pro-Pro-OH) , what is it?
Result :: 235

Query :: Same question, CCOC(=O)N[C@@H](CO)C(=O)N1CCC[C@H]1C(=O)N1CCC[C@H]1C(=O)O [Example 35] this time
Result :: 220

Query :: Next entry: CCOC(=O)N[C@@H](CCCNC(=N)N)C(=O)N1CCC[C@H]1C(=O)N1CCC[C@H]1C(=O)O [Example 34]
Result :: 203

Query :: What do we get for O=C(O)[C@@H]1CCCN1C(=O)[C@@H]1CCCN1C(=O)[C@H](CO)NCc1ccccc1 [Example 29, N--benzyl-L-seryl-L-prolyl-L-proline] ?
Result :: 214

Query :: Then this compound: CCS(=O)(=O)N[C@@H](CO)C(=O)N1CCC[C@H]1C(=O)N1CCC[C@H]1C(=O)[O-].[Na+] [Example 42]
Result :: 220

Query :: Try CCOC(=O)N[C@@H](CCC(=O)O)C(=O)N1CCC[C@H]1C(=O)O [Example 33, N--ethoxycarbonyl-L-glutamyl-L-proline] next.
Result :: 220

Query :: Can you handle CCS(=O)(=O)NCC(=O)N1CCC[C@H]1C(=O)N1CCC[C@H]1C(=O)O [Example 39] next?
Result :: 232

Query :: Repeat with CCOC(=O)N[C@@H](Cc1ccccc1)C(=O)N1CCC[C@H]1C(=O)N1CCC[C@H]1C(=O)O.[Na] [Example 31]
Result :: 216

Query :: What would you report for CC[C@H](C)[C@H](NC(=O)c1ccccc1)C(=O)N1CCC[C@H]1C(=O)N1CCC[C@H]1C(=O)O [Example 25] (Bz-Ile-Pro-Pro-OH) ?
Result :: 229

Query :: Subsequent entry: CC[C@H](C)[C@H](NS(=O)(=O)CC)C(=O)N1CCC[C@H]1C(=O)N1CCC[C@H]1C(=O)O.[Na] [Example 37]
Result :: 218

Query :: Same thing, different compound: CCOC(=O)NCC(=O)N1CCC[C@H]1C(=O)N1CCC[C@H]1C(=O)O.[Na] [Example 32]
Result :: 215

Query :: What do you get for CCS(=O)(=O)N[C@@H](CCCNC(=N)N)C(=O)N1CCC[C@H]1C(=O)N1CCC[C@H]1C(=O)O [Example 41] ?
Result :: 204

Query :: What do you get for CCOC(=O)N[C@H](C(=O)N1CCC[C@H]1C(=O)N1CCC[C@H]1C(=O)O)[C@@H](C)CC.[Na] [Example 30] ?
Result :: 224

Query :: Again, but for CCOC(=O)N[C@@H](CCSC)C(=O)N1CCC[C@H]1C(=O)N1CCC[C@H]1C(=O)[O-].[Na+] [Example 36]
Result :: 223

----------
Field: Hrs. After Admin. (of lowest systolic blood pressure value). Provide a value for each of the compounds that follow.
tested on: spontaneously hypertensive rates (SHR rats); experiment: Measurement of change in blood pressure (systolic, indirect, conscious rats) after one oral dose; assay type: in vivo, rat; conditions: second table (Examples 25-43)
Peptide text beside a SMILES is read from it. * marks the point of attachment. Bz = O=C(c1ccccc1)*
Give your result as the value with the unit written after it.

Query :: Need Hrs. After Admin. (of lowest systolic blood pressure value), item "CCOC(=O)N[C@@H](CCCNC(=N)N)C(=O)N1CCC[C@H]1C(=O)N1CCC[C@H]1C(=O)O"
Result :: 4 h

Query :: And what about the compound "CCOC(=O)N[C@H](C(=O)N1CCC[C@H]1C(=O)N1CCC[C@H]1C(=O)O)[C@@H](C)CC.[Na]" ?
Result :: 4 h

Query :: Next up: "CCOC(=O)NCC(=O)N1CCC[C@H]1C(=O)N1CCC[C@H]1C(=O)O.[Na]"
Result :: 8 h

Query :: Same lookup for "CCS(=O)(=O)N[C@@H](Cc1ccccc1)C(=O)N1CCC[C@H]1C(=O)N1CCC[C@H]1C(=O)O" , please.
Result :: 8 h

Query :: Now try O=C(N[C@@H](Cc1ccccc1)C(=O)N1CCC[C@H]1C(=O)N1CCC[C@H]1C(=O)O)c1ccccc1.[Na] [Example 26] (Bz-Phe-Pro-Pro-OH) .
Result :: 8 h

Query :: Next entry: "O=C(O)[C@@H]1CCCN1C(=O)[C@@H]1CCCN1C(=O)[C@H](CO)NCc1ccccc1"
Result :: 8 h

Query :: Same again, this time with "CCS(=O)(=O)N[C@@H](CCC(=O)O)C(=O)N1CCC[C@H]1C(=O)N1CCC[C@H]1C(=O)O"
Result :: 8 h

Query :: Record: "CCS(=O)(=O)N[C@@H](CCCNC(=N)N)C(=O)N1CCC[C@H]1C(=O)N1CCC[C@H]1C(=O)O"
Result :: 7 h

Query :: And for O=C(O)CC[C@H](NC(=O)c1ccccc1)C(=O)N1CCC[C@H]1C(=O)N1CCC[C@H]1C(=O)O [Example 28, N--benzoyl-L-glutamyl-L-prolyl-L-proline] (Bz-Glu-Pro-Pro-OH) ?
Result :: 8 h

Query :: Here is the next compound: "CC[C@H](C)[C@H](NS(=O)(=O)CC)C(=O)N1CCC[C@H]1C(=O)N1CCC[C@H]1C(=O)O.[Na]"
Result :: 8 h

Query :: Try "CCOC(=O)N[C@@H](Cc1ccccc1)C(=O)N1CCC[C@H]1C(=O)N1CCC[C@H]1C(=O)O.[Na]" next.
Result :: 24 h

Query :: Now try O=C(NCC(=O)N1CCC[C@H]1C(=O)N1CCC[C@H]1C(=O)O)c1ccccc1 [Example 27, N--benzoyl-glycyl-L-prolyl-L-proline] (Bz-Gly-Pro-Pro-OH) .
Result :: 8 h

Query :: Try "CCS(=O)(=O)NCC(=O)N1CCC[C@H]1C(=O)N1CCC[C@H]1C(=O)O" next.
Result :: 8 h

Query :: # repeat for "CCOC(=O)N[C@@H](CCC(=O)O)C(=O)N1CCC[C@H]1C(=O)O"
Result :: 8 h

Query :: Now this one: "CCOC(=O)N[C@@H](CO)C(=O)N1CCC[C@H]1C(=O)N1CCC[C@H]1C(=O)O"
Result :: 8 h

Query :: Consider next the compound CC[C@H](C)[C@H](NC(=O)c1ccccc1)C(=O)N1CCC[C@H]1C(=O)N1CCC[C@H]1C(=O)O [Example 25] (Bz-Ile-Pro-Pro-OH) in the same way.
Result :: 8 h

Query :: Entry to check: "CCOC(=O)N[C@@H](CCSC)C(=O)N1CCC[C@H]1C(=O)N1CCC[C@H]1C(=O)[O-].[Na+]"
Result :: 8 h

Query :: Now the same for "CCS(=O)(=O)N[C@@H](CO)C(=O)N1CCC[C@H]1C(=O)N1CCC[C@H]1C(=O)[O-].[Na+]"
Result :: 24 h

Query :: Further, for "CCS(=O)(=O)N[C@@H](CCSC)C(=O)N1CCC[C@H]1C(=O)N1CCC[C@H]1C(=O)O" ?
Result :: 8 h
